system_under_test: T1, 10E8-B1 epitope scaffold (synthetic construct (resurfaced …))
T1 chain: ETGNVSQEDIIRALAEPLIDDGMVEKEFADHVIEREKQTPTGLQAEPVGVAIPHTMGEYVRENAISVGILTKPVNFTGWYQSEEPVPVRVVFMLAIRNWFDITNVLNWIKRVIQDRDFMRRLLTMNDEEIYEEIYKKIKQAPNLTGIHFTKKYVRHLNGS
pKd: −log10 of the molar value.
Criterion: pKd meeting or surpassing 5. Met: Satisfied. Not met: Not satisfied.

Example results:
1) NHP-10E8_MPER-GT10v55_W26-03 (antibody, V domains shown) VH: QVQLQESGPGVVKPSETLSLTCAVSGGSISDNYWWTWIRQPPGKGLEWIGYIYGSNTSTNYNPSLKSRVTISKDTSKNQFSLKLSSVTAADTAVYYCARDREFYNFWSGYYGAYGLDSWGQGVVVTVSS VL: QPVLTQPTSLSASPGASARLSCTLSSGINVGSYSIYWYQQKPGSPPRYLLYYDSDSNKHQGSGVPSRFSGSNDASANAGLLLISGLQSEDEADYYCAIWHSSTYYIFGGGTRLTV    Satisfied
2) NHP-10E8_MPER-GT10v55_W3-20 (antibody, V domains shown) VH: EVQLVESGGGLVQPGGSLRLSCAASGFSFSNYWMSWVRQAPGKGLEWVGFIKNKADGGTAAYAESVKGRFTISRDDSKNTLYLQMNSLKTEDTAVYFCARDLGRYNFWSAFYSQNRFDVWGPGVLVTVSS VL: SYEVTQPPSVSVSPGQMARITCGGDNLGSKYVHWYQQKPAQAPVMVMYDDSERPSGIPERFSGSKSGNTATLTISGVEAGDEADYYCQVWDSSSDHPLFGGGTRLTV    Satisfied
3) NHP-10E8_MPER-GT10v55_W21-19 (antibody, V domains shown) VH: QVQLQESGPGLLKPSDTLSLICAVSGGSISGGYGWGWIRQPPGKGLEWIGSIYSSNGNTYYNPSLKSRVTISTDTSKNQFSLKLNSVTAADTAVYYCGSGGLSYSFWSGYQSLHRLHVWGPGVLVTVSS VL: DIVMTQTPLSLPVTPGEPASISCRSSQSLLDSEDGNTYLDWYLQKPGQSPQLLIYEVSKRASGVPDRFSGSGSDTDFTLKISRVEAEDVGVYYCMQGLEFPFTFGPGTKLDIK    Satisfied

Hi team, for NHP-10E8_MPER-GT10v55_W21-04 (antibody, V domains shown) VH: EVQLVESGGGLVQPGGSLRLSCVASGFTFSDYGFDWVRQAPGKGLEWVGFIRSKDYGGSTEYAASVKGRFTISRDDSKNTAYLQMTSLKAEDTAVYFCTRDLGFYNFWTGYYEVNRFDVWGAGVLVTVSS VL: QPVLTQPTSLSASPGASARLTCTLRSGISVGSYRIFWYQQKPGSPPRYLLNYHTDSDNHQGSGVPSRFSGSKDASANAGILLISGLQSDDEADYYCMIWHNNACFFGGGTRLTV , is the recorded pKd at or above 5?
Not satisfied

Now consider NHP-10E8_MPER-GT10v55_W21-12 (antibody, V domains shown) VH: EVQLVESGGGLVQPGGSLRLSCAASGFTFSSYGMHWVRQAPGKGLEWVAVIWYDGSKKYYADSVKDRFTISRDNSKNMLYLQMNNLKFEDTAVYYCARVAPDYDFWSGSYTYSGLDSWGQGVVVTVSS VL: DIQMTQSPSSLSASVGDTVTITCRASQSISSWLDWYQQKPGKAPKLLIYKASNLQSGVPSRFSGSGSGTHFTLTISSLQPEDFATYYCLQYNSSPYSFGQGTKVEIK and answer again.
Satisfied
